Conditions: in ethyl acetate, 282.5 K
MEASURED_PARAMETER: solubility (mole fraction)
A bare number is all that is needed in reply.

Problem: Tell us which solubility (mole fraction) value is on record for CCn1c2ccccc2c2cc(-n3nncc3-c3ccccc3)ccc21
Result: 0.00438

====

Settings: in isopropanol, 311 K
MEASURED_PARAMETER: solubility (mole fraction)

Problem: Tell us which solubility (mole fraction) value is on record for CCn1c2ccccc2c2cc(-n3nncc3-c3ccccc3)ccc21
Result: 0.00113

====

Settings: in sec-butanol, 329.5 K
MEASURED_PARAMETER: solubility (mole fraction)
A bare number is all that is needed in reply.

Problem: Tell us which solubility (mole fraction) value is on record for CCn1c2ccccc2c2cc(-n3nncc3-c3ccccc3)ccc21
Result: 0.0053

====

Settings: in ethanol, 288.8 K
MEASURED_PARAMETER: solubility (mole fraction)
A bare number is all that is needed in reply.

Problem: Tell us which solubility (mole fraction) value is on record for CCn1c2ccccc2c2cc(-n3nncc3-c3ccccc3)ccc21
Result: 0.000598

====

Conditions: in methanol, 281.9 K
MEASURED_PARAMETER: solubility (mole fraction)

Problem: Tell us which solubility (mole fraction) value is on record for CCn1c2ccccc2c2cc(-n3nncc3-c3ccccc3)ccc21
Result: 0.000468

====

Settings: in methanol, 306.1 K
MEASURED_PARAMETER: solubility (mole fraction)
A bare number is all that is needed in reply.

Problem: Tell us which solubility (mole fraction) value is on record for CCn1c2ccccc2c2cc(-n3nncc3-c3ccccc3)ccc21
Result: 0.00116

====

Conditions: in n-butanol, 312.6 K
MEASURED_PARAMETER: solubility (mole fraction)
A bare number is all that is needed in reply.

Problem: Tell us which solubility (mole fraction) value is on record for CCn1c2ccccc2c2cc(-n3nncc3-c3ccccc3)ccc21
Result: 0.00276

====

Details: in sec-butanol, 315.7 K
MEASURED_PARAMETER: solubility (mole fraction)
A bare number is all that is needed in reply.

Problem: Tell us which solubility (mole fraction) value is on record for CCn1c2ccccc2c2cc(-n3nncc3-c3ccccc3)ccc21
Result: 0.0024

====

Conditions: in acetonitrile, 281.7 K
MEASURED_PARAMETER: solubility (mole fraction)
A bare number is all that is needed in reply.

Problem: Tell us which solubility (mole fraction) value is on record for CCn1c2ccccc2c2cc(-n3nncc3-c3ccccc3)ccc21
Result: 0.00188
